Origin of measurements: ChEMBL document CHEMBL1201862

# System: T47D
# experimental-details: NCI tumour cell line growth inhibition, 48 h
The source made the active and inactive calls. No stated cut-off is given here; in the data, active = GI50 up to about 1.1 µM and inactive = higher.
Each entry below carries its recorded GI50.

These recorded examples may help you get a feel for the data.
Cc1cccc(NC(=O)CCl)c1 : > 10 µM (inactive)
O=C(c1cc2c(c3ccccc13)NCCN=C2C(F)(F)F)C(F)(F)F : 21.4 µM (inactive)

Attention now shifts to the item below.
Give GI50 (T47D) of the following compound: `CCCCCCC(=O)c1ccc2ccccc2c1O` 34.8 µM (inactive)

---

# Test system: SK-MEL-28
# experimental-details: NCI tumour cell line growth inhibition, 48 h
Active and inactive are the calls of the source. No stated cut-off is given here; in the data, active = GI50 up to about 1.1 µM and inactive = higher.
Each entry below carries its recorded GI50.

Oc1ccc2c3c1OC1C(=NN=C4CCC5(O)C6Cc7ccc(O)c8c7C5(CCN6CC5CC5)C4O8)CCC4(O)C(C2)N(CC2CC2)CCC314 (stereo not drawn) : 21.9 µM (inactive)
Cc1cn(C2CC(O)C(CO)C2C)c(=O)[nH]c1=O (stereo not drawn) : > 100 µM (inactive)
COc1ccc(-c2cc(=O)c3ccccc3[nH]2)c(OC)c1 : > 100 µM (inactive)
O=C1/C(=C/c2ccccc2)CN(C(=O)CCN2CCOCC2)C/C1=C\c1ccccc1 : 1.86 µM (inactive)
CNC1C(O)C(NC)C2OC3(O)C(=O)CC(C)OC3OC2C1O (stereo not drawn) : > 100 µM (inactive)
O=C(Nc1cccc(O)c1)C(=O)C(C(=O)c1ccccc1F)C1OC(=O)c2ccccc21 (stereo not drawn) : 31 µM (inactive)

So what does the record say about GI50 for `Cc1n[nH]/c(=N\S(=O)(=O)c2ccc(/N=N/c3c(O)c(C(=O)O)cc4ccccc34)cc2)s1` ? > 100 µM (inactive)

So what does the record say about GI50 for `Cc1cc(C)c(C2=NO[C@@H]3C(=O)N(c4ccc(Cc5ccc(N6C(=O)[C@H]7C(c8c(C)cc(C)cc8C)=NO[C@H]7C6=O)cc5)cc4)C(=O)[C@H]23)c(C)c1` ? > 100 µM (inactive)

---

# Tested on: SK-MEL-28
# experimental-details: NCI tumour cell line growth inhibition, 48 h
The source made the active and inactive calls. Cut-off read from the data, not from the text of the source: active = GI50 up to about 1.1 µM and inactive = higher.
property-measured: GI50

C=CC[C@@H](N)C(=O)N(C)[C@@H](C)[C@@H](O)c1ccccc1 : > 100 µM (inactive)
CC(C)(C)OC(=O)c1ccc(NCC2=CC(=O)C=CC2=O)cc1 : 15.6 µM (inactive)
CCOc1nc(N)nc(C)c1/N=N/c1ccc(Cl)cc1 : > 100 µM (inactive)
Cc1cc(N(CCC#N)CCC#N)ccc1/C=C1/CN(N2C(=O)/C(=C/c3ccc(N(CCC#N)CCC#N)cc3C)N=C2c2ccccc2)C(c2ccccc2)=N1 : > 100 µM (inactive)

Attention now shifts to the item below.
So what does the record say about GI50 for Cc1cc(-c2nc3ccc(F)cc3s2)ccc1NC(=O)C(N)CCCCN (stereo not given) ? 18.4 µM (inactive)

---

# System: NCI-H460
# experimental-details: NCI tumour cell line growth inhibition, 48 h
The source made the active and inactive calls. Rule as the data show it: active = GI50 up to about 1.1 µM and inactive = higher.
Pick from 1.0 for active, 0.0 for inactive when you respond.

See these solved cases before continuing.
N#Cc1ccc(-c2nc(C#N)c(N)o2)cc1 : 0.0
CN1c2ccccc2N(C(=O)c2ccc(Cl)cc2)C(CC(=O)O)c2cccn21 (centres undefined) : 0.0

Field: outcome | Entry: `COCn1cnc2c(=O)n(-c3ccc(C)cc3)c(=S)n(-c3ccc(C)cc3)c21` 0.0

Field: outcome | Entry: Cn1c(C(C#N)c2nc(Cl)ncc2Br)nc2ccccc21 (centres undefined) 0.0

Field: outcome | Entry: CC(=O)NC1C(OCC(=O)NCCNc2ccc([N+](=O)[O-])c3[nH]c4ccccc4c(=O)c23)C(O)C(CO)OC1(C)OCc1ccccc1 (centres undefined) 0.0

Field: outcome | Entry: CC1(C)OC2C(=O)OC(COCc3ccccc3)C2O1 (centres undefined) 0.0

Field: outcome | Entry: `O=C(c1cc2c(c3ccccc13)NCCN=C2C(F)(F)F)C(F)(F)F` 0.0

Field: outcome | Entry: CCCCN1CCC(O)(c2cc(C(=O)O)[nH]c2-c2cc(C)no2)C1=O (centres undefined) 0.0

Field: outcome | Entry: Cc1cc(-c2nc3ccc(F)cc3s2)ccc1NC(=O)C(N)CCCCN (centres undefined) 0.0

---

# Tested on: UACC-257
# experimental-details: NCI tumour cell line growth inhibition, 48 h
Active and inactive are the calls of the source. Rule as the data show it: active = GI50 up to about 1.1 µM and inactive = higher.
Pick from active, inactive when you respond.

See these solved cases before continuing.
O=C(C(=O)N1CC2C=CC1CC2)c1c[nH]c2ccccc12 (stereo not given) : inactive
Cc1ccc2c(O)c3c(cc2c1)C(=O)c1c2c(cc(O)c1C3=O)C1(C)OC(O2)C(O)C(N(C)C)C1O (stereo not given) : inactive

Field: outcome | Entry: `O=C1N/C(=N/N=C/c2c[nH]c3ccccc23)N/C1=C\c1cccs1` inactive

Field: outcome | Entry: `Cc1ccc(S(=O)(=O)c2c(O)c3ccc(O)c(C)c3oc2=O)cc1` inactive

Field: outcome | Entry: CC(C)(C)OC(=O)C1C(=O)NC(=O)CC1CC(OCc1ccccc1)C(COCc1ccccc1)OCc1ccccc1 (stereo not given) inactive

---

Each entry below carries its recorded GI50.
# Tested on: OVCAR-3
# experimental-details: NCI tumour cell line growth inhibition, 48 h
Activity calls are given as the source filed them. No stated cut-off is given here; in the data, active = GI50 up to about 1.1 µM and inactive = higher.

CCOc1ccc(/N=N/C2C(=O)N(C(=O)CC(=O)Nc3ccc(Cl)cc3)N=C2C)cc1 (stereo not given) : > 100 µM (inactive)
OC(c1cc2ccccc2o1)c1cc2ccccc2s1 (stereo not given) : > 10 µM (inactive)
COc1ccc(/C=C(\C(=C/c2ccc(OC)cc2)[N+](=O)[O-])[N+](=O)[O-])cc1 : 12.8 µM (inactive)
Oc1ccc2ccccc2c1/N=N/c1cccc2ccccc12 : > 100 µM (inactive)

Attention now shifts to the item below.
Give GI50 (OVCAR-3) of the following compound: `CC1=C(O)C(=O)C2=C(C1=O)[C@@H]([C@@H](C)C/C=C/C(C)(C)O)CC[C@@H]2C` 25.5 µM (inactive)

---

# Tested on: A549
# experimental-details: NCI tumour cell line growth inhibition, 48 h
The source made the active and inactive calls. Cut-off read from the data, not from the text of the source: active = GI50 up to about 1.1 µM and inactive = higher.
property-measured: GI50

CC(C)Sc1nc(C#N)cc2c1CCCC2 : 37.1 µM (inactive)
CC1(C)OC2C(=O)OC(COCc3ccccc3)C2O1 (stereo not given) : > 100 µM (inactive)
COC(=O)C1=C(O)C(C(=O)OC)[C@]2(O)[C@@H](C(=O)OC)[C@H]1[C@H](C)[C@@H](c1ccccc1)[C@@H]2C(=O)OC (stereo not given in full) : 56.4 µM (inactive)

So what does the record say about GI50 for `COc1cccc2c1cc([N+](=O)[O-])c1c(C(=O)O)cc3c(c12)OCO3` ? 45.9 µM (inactive)

So what does the record say about GI50 for `N=C(N)N/N=C/c1c(-c2ccc([N+](=O)[O-])cc2)nc2sccn12` ? 1.78 µM (inactive)

---

# Test system: TK-10
# experimental-details: NCI tumour cell line growth inhibition, 48 h
Active and inactive are the calls of the source. Rule as the data show it: active = GI50 up to about 1.1 µM and inactive = higher.
Each entry below carries its recorded GI50.

These recorded examples may help you get a feel for the data.
O=C1Sc2ccccc2/C1=N/Nc1ccccc1[N+](=O)[O-] : > 100 µM (inactive)
Brc1ccc(/N=N/N2CCCC2)cc1 : 82.4 µM (inactive)
O=C(O)C1(C(=O)O)CCN(S(=O)(=O)c2ccccc2)CC1 : > 100 µM (inactive)
COC(=O)C1=NN2c3ccccc3CN([C@@H](C)c3ccccc3)C(=O)[C@@H]2[C@H]1c1ccccc1 : > 100 µM (inactive)
O=[N+]([O-])c1cc(/N=N/c2c(O)ccc3cc(S(=O)(=O)O)ccc23)c(O)c([N+](=O)[O-])c1 : > 100 µM (inactive)
CCOC(=O)/C=C(\C(=O)OCC)n1cc(C)c(=O)n(Cc2cn(CCCCOC(C)=O)nn2)c1=O : 7.38 µM (inactive)
O=C(/N=C1/OC(CN2CCOCC2)CN1C(=O)Nc1ccccc1)Nc1ccccc1 (stereo not given) : > 100 µM (inactive)
Cc1cccc(C)c1NC(=O)C(=O)C(C#N)c1ccccc1 (stereo not given) : > 100 µM (inactive)

So what does the record say about GI50 for `CSc1cc(-c2cc3ccccc3o2)oc(=O)c1C#N` ? 21.8 µM (inactive)

So what does the record say about GI50 for CCC(C)Cn1c(C)nc2c1C(=O)c1ccccc1C2=O (stereo not given) ? 41.4 µM (inactive)

---

# Tested on: PC-3
# experimental-details: NCI tumour cell line growth inhibition, 48 h
Active and inactive are the calls of the source. Cut-off read from the data, not from the text of the source: active = GI50 up to about 1.1 µM and inactive = higher.
Pick from active, inactive when you respond.

See these solved cases before continuing.
CC(=O)OC/C=C(/C=C/CNC1CCCCC1)OC(C)=O : inactive
COC1(CCO)CC=CCC1(CCO)OC (stereo unspecified) : inactive
Cc1cccc2c1c(=O)c1c(O)cc3c(c1n2C)C=CC(C)(C)O3 : inactive
O=S(=O)(c1ccc(NC(=S)N/N=C/c2ccccc2O)cc1)N1CCCCC1 : active
CCCCCCCCCCCCCCCCCc1cc(Cl)nc(Cl)n1 : inactive
COC(=O)C(C)(C)OCc1ccc(C2NC(=O)N(c3cccc(Cl)c3)C(=O)N2c2cccc(Cl)c2)cc1 (stereo unspecified) : inactive

Consider the additional compound presented here.
Field: outcome | Entry: `Cc1ccc(S(=O)(=O)c2c(O)c3ccc(O)c(C)c3oc2=O)cc1` inactive
